experimental system: T1, Recombinant human DcR1-Fc (human, UniProt O14798 26-221)
T1 construct: bought; also called huDcR1Fc; human DcR1 (TNFRSF10C); Fc part of the bought chimera not given
T1 sequence (looked up): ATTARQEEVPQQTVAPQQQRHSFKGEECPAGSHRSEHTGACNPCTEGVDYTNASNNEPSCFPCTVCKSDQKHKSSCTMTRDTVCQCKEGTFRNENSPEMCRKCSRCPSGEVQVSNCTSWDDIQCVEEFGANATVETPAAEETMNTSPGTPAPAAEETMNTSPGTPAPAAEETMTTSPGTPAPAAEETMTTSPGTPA
measurement protocol: binding ELISA
readout name: binding result

[[record]]
binder = "DR5TAA-0005 (antibody, V domains shown, rabbit IgG; also called 039; clone 039) VH: QSLEESGGRLVTPGTPLTLTCTASGFSLSSAYMSWVRQAPGKGLEWIGYIYSGSGSTWYASWVKGRFTISKTSTTVDLKITSPTTEDTATYFCARGYSTMGDLWGPGTLVTVSS VL: QVLTQTPSPVSAAVGGTVTINCQASQSVYNNRLAWYQQKPGQPPKLLIYLASTLASGVPSRFKGSGSGTQFTLTISDLQCDDAATYYCAGGYSGNINAFGGGTEVVVKG"
reported_value = "no binding"

[[record]]
binder = "DR5TAA-0019 (antibody, V domains shown, rabbit IgG) VH: QSVEESGGRLVTPGTPLTLTCTVSGFSLSNYAMSWVRQAPGKGLEWIGIISSSGTTYYASWAKGRFTISKTSTTVDLKVTSPTTEDTATYFCARETYYGYSYAAGLWGPGTLVTVSS VL: ALVMTQTPSSVSAAVGGTVTINCQASQNIYSNLAWFQQKPGQPPKLLIYETSKLASGVPSRFSGSGSGTEFTLTISDLECDDAATYYCQSSWHSISTDCAFGGGTEVVVKG"
reported_value = "no binding"

[[record]]
binder = "DR5TAA-0006 (antibody, V domains shown, rabbit IgG; also called 058; clone 058) VH: QSLEESGGRLVTPGTPLTLTCTASGFSLSSNHMSWVRQAPGKGLEWIGYIYAGSGSAYYASWAKGRFTISRTSTTVDLKMTSLTTEDTATYFCAGDAGSSYWEFNLWGPGTLVTVSS VL: LVMTQTPSSTSEPVGGTVTIKCQASQSIGSSLSWYQQKPGQPPKLLIYHASTLASGVPSRFSGSRSGIQTTLTISGVQCDDAATYYCLGVADARRDDGFAFGGGTEVVVKG"
reported_value = "no binding"

[[record]]
binder = "DR5TAA-0013 (antibody, V domains shown, rabbit IgG; also called 298; clone 298) VH: QSLEESGGRLVTPGTPLTLTCTASGFTISSYHMSWVRQAPGKGLEWIGYIYAGSASTWYASWVKGRFTISKTSTTVDLKMTSLTTEDTATYFCARDAGSSYWEFNLWGPGTLVTVSS VL: LVMTQTPSSTSEPVGGTVTIKCQASQSIGSSLSWYQQTPGQPPKLLIYTASSLASSVPKRFSGSRSGTQFTLTISGVQCADAATYYCLGIDDVRRDDGFAFGGGTEVVVKG"
reported_value = "no binding"

[[record]]
binder = "DR5TAA-0011 (antibody, V domains shown, also called 174; clone 174) VH: QSVEESGGRLVTPGTPLTLTCTVSGFSISRYAMIWVRQAPGEGLEYIGFITSDSSAYYASWAKGRFTISKTSTTVDLKMTSPTTEDTATYFCARYTYSDGTDLWGPGTLVTVSS VL: DIVMTQTPASVSEPVGGTVTIKCQASQSISTYLSWYQQKPGQPPKRLIYKASTLASGVPSRFKGSGSGTDFTLTIRDLECADAATYYCQPNSGIATYGAAFGGGTEVVVKG"
reported_value = "no binding"

[[record]]
binder = "DR5TAA-0016 (antibody, V domains shown) VH: QSLEESGGRLVKPDETLTLTCTVSGFSLNNYAMSWVRQAPGKGLEWIGMINKYGTKYYATWTKGRATISKTSTTLDLEITSPTTEDTATYFCARVRYAGDDYAEWLDVWGQGILVTVSS VL: DIVMTQTASPVSAAVGGTVTINCQASQSISSSYVSWYQQKPGQPPKLLIYKASTLASGVPSRFSGSGSGTQLSLTIRGVQCDDAATYYCLYGYSDVSSSEYVFGGGTEVVVRG"
reported_value = "no binding"

[[record]]
binder = "DR5TAA-0010 (antibody, V domains shown, rabbit IgG; also called 481; clone 481) VH: QSLEESGGRLVKPDETLTLTCTVSGFSLSSNAISWVRQAPGMGLEWIGIIGSSGYTYYASWAKGRFTVSKTSTTVDLEIASPTTEDTATYFCARGYSGASDYSFNLWGPGTLVTVSS VL: AYDMTQTPDSVEVAVGGTVTIKCQASQTIGDALAWYQQKPGQRPNLLIYRTSTLASGVPSRFSGSGSGTHFTLTISGVECADAATYYCQQGATYNNVLNTFGGGTEVVVKG"
reported_value = "no binding"

